# target_or_system: CYP 2C9 (Homo sapiens, UniProt P11712)
# Sequence (P11712 whole entry): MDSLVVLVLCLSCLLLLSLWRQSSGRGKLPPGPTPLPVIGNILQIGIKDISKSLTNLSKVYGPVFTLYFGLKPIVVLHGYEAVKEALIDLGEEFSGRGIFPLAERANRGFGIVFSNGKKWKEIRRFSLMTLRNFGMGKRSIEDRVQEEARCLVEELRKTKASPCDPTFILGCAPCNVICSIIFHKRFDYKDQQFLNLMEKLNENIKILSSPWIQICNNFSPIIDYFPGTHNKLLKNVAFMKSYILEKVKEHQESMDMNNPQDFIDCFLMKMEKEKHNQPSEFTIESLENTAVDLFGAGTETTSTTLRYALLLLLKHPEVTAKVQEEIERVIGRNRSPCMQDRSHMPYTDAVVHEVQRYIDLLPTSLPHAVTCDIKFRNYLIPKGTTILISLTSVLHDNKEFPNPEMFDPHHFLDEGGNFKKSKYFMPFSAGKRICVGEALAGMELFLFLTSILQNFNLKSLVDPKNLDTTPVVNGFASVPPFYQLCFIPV
# experiment_notes: CYP inhibition 2C9
# Format: in vitro ADME
endpoint_name: IC50 (µM)

compound="COc1cc(-c2cn(C)c(=O)c(C)c2C)cc(OC)c1CN1CCC(N2CCN(c3ccc(NC4CCC(=O)NC4=O)cc3F)CC2)C(F)(F)C1 (stereo not shown)" experimental_result=30

###

The entries below come with measured pIC50 values attached.
# target_or_system: UniProtKB Q12809
# Sequence (Q12809 whole entry): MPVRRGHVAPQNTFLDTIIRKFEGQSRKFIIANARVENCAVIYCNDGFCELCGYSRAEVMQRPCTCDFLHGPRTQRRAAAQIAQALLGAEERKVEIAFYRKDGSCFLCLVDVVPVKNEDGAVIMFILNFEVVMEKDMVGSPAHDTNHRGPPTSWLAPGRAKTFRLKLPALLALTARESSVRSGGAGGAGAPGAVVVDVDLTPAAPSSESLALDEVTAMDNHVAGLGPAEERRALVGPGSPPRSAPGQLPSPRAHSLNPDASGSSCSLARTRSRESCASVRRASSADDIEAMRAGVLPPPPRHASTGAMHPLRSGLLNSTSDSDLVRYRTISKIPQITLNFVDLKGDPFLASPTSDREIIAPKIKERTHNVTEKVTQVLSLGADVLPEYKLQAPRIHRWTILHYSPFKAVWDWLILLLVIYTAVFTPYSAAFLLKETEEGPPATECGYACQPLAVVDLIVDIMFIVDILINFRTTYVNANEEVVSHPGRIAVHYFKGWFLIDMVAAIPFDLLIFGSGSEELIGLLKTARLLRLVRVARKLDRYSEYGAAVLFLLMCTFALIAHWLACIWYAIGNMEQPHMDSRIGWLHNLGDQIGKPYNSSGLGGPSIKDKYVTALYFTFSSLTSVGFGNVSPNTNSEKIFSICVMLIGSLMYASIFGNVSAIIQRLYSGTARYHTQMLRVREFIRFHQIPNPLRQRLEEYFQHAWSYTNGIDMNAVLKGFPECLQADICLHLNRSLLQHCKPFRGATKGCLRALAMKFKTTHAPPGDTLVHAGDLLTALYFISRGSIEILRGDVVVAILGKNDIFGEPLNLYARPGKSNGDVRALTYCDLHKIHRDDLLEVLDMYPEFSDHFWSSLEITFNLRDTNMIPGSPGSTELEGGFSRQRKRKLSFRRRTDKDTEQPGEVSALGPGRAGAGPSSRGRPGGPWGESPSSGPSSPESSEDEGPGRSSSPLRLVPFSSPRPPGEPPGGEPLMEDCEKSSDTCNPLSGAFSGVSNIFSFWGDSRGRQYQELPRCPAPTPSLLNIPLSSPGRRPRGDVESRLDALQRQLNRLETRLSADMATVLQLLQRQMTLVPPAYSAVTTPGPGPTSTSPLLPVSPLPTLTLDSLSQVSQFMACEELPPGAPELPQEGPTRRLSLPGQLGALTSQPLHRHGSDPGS
pIC50: −log10 of the molar value.
endpoint_name: pIC50

compound="COc1cc(-c2cn(C)c(=O)c(C)c2C)cc(OC)c1CN1CCC(N2CCN(c3ccc(NC4CCC(=O)NC4=O)cc3F)CC2)C(F)(F)C1 (single isomer, unassigned) [Compound 176]" experimental_result="< 4.52"
compound="COc1cc(-c2cn(C)c(=O)c(C)c2C)cc(OC)c1CN1CCC(N2CCN(c3ccc(NC4CCC(=O)NC4=O)cc3F)CC2)C(F)(F)C1 (centres unmarked) [Compound 172]" experimental_result="< 4.52"

###

# experiment_notes: Caco-2 permeability
# Format: in vitro ADME
# setup_conditions: human, A-B
endpoint_name: Papp A→B (×10⁻⁶ cm/s)

compound="COc1cc(-c2cn(C)c(=O)c(C)c2C)cc(OC)c1CN1CCC(N2CCN(c3ccc(NC4CCC(=O)NC4=O)cc3F)CC2)C(F)(F)C1 (stereo not shown)" experimental_result=7.1

###

# target_or_system: BRD9 (Homo sapiens, UniProt Q9H8M2)
# Sequence (Q9H8M2 whole entry): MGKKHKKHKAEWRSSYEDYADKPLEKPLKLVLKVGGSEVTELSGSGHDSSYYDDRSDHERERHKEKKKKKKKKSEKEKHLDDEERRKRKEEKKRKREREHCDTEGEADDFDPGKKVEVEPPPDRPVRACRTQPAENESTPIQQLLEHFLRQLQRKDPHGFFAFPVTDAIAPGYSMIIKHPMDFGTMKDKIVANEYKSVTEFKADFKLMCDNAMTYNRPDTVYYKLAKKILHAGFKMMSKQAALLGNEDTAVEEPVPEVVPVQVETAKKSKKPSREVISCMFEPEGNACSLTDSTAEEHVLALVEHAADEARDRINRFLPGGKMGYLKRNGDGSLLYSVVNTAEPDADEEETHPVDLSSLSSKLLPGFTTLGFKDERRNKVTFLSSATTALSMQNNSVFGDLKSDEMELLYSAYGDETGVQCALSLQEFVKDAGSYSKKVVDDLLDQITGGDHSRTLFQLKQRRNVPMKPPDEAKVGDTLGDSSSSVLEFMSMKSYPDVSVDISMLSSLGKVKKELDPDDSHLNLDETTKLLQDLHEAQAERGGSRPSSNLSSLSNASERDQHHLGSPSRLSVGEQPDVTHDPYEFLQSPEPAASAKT
# experiment_notes: HiBiT BRD9 degradation assay in 293T.166 (BRD9-HiBiT) cells
# Type: cell-based
# Parameters: endogenously expressing BRD9 with HiBiT fusion tag via CRISPR; host or cells: 293T.166 (BRD9-HiBiT), also expressing LgBiT ectopically
# setup_conditions: Table 1; 293T.166 cells, 2.0 hours; class symbols; read-out: HiBiT-Degradation 293T.166 BRD9 2.0 hours (DC50)
endpoint_name: DC50

compound="COc1cc(-c2cn(C)c(=O)c3[nH]ncc23)cc(Cl)c1C(=O)N1CCC(C2CCN(c3ccc(NC4CCC(=O)NC4=O)nc3)CC2)CC1 (stereo not drawn)" experimental_result="< 100 nM"
compound="COc1cc(-c2cn(C)c(=O)c3cnccc23)cc(Cl)c1C(=O)N1CCC(CCC2CCN(c3ccc(NC4CCC(=O)NC4=O)cc3C(F)(F)F)CC2)CC1 (stereo not drawn)" experimental_result="< 100 nM"
compound="COc1cc(-c2cn(C)c(=O)c3[nH]ncc23)cc(OC)c1CN1CCN(CC(=O)N2CCC(c3ccc(NC4CCC(=O)NC4=O)cc3)CC2)CC1 (stereo not drawn)" experimental_result="< 100 nM"

###

Vd for assorted compounds
# experiment_notes: IV PK, mouse
# Format: in vivo
# setup_conditions: in vivo, read-out: IV PK Vdss
endpoint_name: Vd (L/kg)

compound="COc1cc(-c2cn(C)c(=O)c(C)c2C)cc(OC)c1CN1CCC(N2CCN(c3ccc(NC4CCC(=O)NC4=O)cc3F)CC2)C(F)(F)C1 (single isomer, unassigned) [Compound 176]" experimental_result=2
compound="COc1cc(-c2cn(C)c(=O)c(C)c2C)cc(OC)c1CN1CCC(N2CCN(c3ccc(NC4CCC(=O)NC4=O)cc3F)CC2)C(F)(F)C1 (centres unmarked) [Compound 172]" experimental_result=1.1
